# measured-target: T1, 15-mer peptide GPPPPIDNGDITSFP (SEQ ID NO: 114) (human)
# T1 construct: Immobilized for SPR; also called parent peptide
# T1 peptide: GPPPPIDNGDITSFP
# assay-method-text: assay and antigen not given; Example 10, epitope mapping on the 15-mer peptide
endpoint: EC50 (ng/mL)
Response body: numeric value in ng/mL, unit text excluded.

Reference set, count: 2
{"binder": "Ab7957/293i (antibody, IgG1, V domains shown, Recombinant human antibody with IgG1 heavy chain backbone and kappa light chain constant; they begin at LVESGGG and MTQSP; also called Ab7957i; mAb 7957) VH: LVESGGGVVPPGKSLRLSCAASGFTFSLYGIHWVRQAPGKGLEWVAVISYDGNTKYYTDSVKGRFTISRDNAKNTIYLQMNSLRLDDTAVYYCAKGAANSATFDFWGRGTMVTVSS VL: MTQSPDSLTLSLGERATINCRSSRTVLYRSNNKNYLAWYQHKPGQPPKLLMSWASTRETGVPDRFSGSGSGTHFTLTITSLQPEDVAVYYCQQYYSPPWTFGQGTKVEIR", "unit-text": "ng/mL", "value-reported": 9.08}
{"binder": "Ab7979 (antibody, IgG1, V domains shown, Recombinant human antibody with IgG1 heavy chain backbone and kappa light chain constant; they begin at LVESGGG and MTQSP; also called Ab7979/239i; mAb 7979) VH: LVESGGGVVQPGKSLRLSCVASGFTFSTYGMHWVRQAPGKGLEWVAVMSFDGKTKYYADSVKGRFTISRDNPKNTLYLQMNSLRSEDTAVYYCAKGGAAAAVFDSWGQGILLTVSS VL: MTQSPNSLAVSLGGRATINCKTSQSILYRSNNKNYLAWYQHKPGQPPKLLIYWASTRESRVPDRFSGSGSRTDFTLTISGLQAEDVAVYYCQQYYNPPWTFGQGTKVEIK", "unit-text": "ng/mL", "value-reported": 12.2}

[in] Entry Ab7960/293i (antibody, IgG1, V domains shown, Recombinant human antibody with IgG1 heavy chain backbone and kappa light chain constant; they begin at LVESGGG and MTQSP; also called mAb 7960; mAb7960) VH: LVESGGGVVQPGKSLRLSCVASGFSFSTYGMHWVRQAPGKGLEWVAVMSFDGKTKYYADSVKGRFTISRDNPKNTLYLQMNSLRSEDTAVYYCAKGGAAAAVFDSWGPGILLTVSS VL: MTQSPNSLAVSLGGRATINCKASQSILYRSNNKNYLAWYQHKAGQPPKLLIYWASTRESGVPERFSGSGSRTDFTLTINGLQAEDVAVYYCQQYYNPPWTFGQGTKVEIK needs its EC50 filled in; supply it.
[out] 7.82
